Where do these numbers come from? They come from the RNAGym collection of RNA variant scans (doi:10.7554/elife.90254).

B1: LINE1-full (parent)
chain: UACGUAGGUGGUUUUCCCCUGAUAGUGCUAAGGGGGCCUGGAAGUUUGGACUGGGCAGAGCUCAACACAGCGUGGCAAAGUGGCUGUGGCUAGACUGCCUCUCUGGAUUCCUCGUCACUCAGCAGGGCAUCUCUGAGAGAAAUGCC

- Variants of: B1
- assay_protocol: self-cleavage, relative activity (ratio to wild type); higher = more cleavage; in vitro, sequencing; the parent is a self-cleaving ribozyme
Each entry below carries its reported self-cleavage.

Example entries begin here.
Notebook: A22G U91C , self-cleavage read as 0.65

Notebook: A59G U132A , self-cleavage read as 0.06

Notebook: A57G U96A , self-cleavage read as 0.05

Notebook: U1C U85G , self-cleavage read as 0.08

Notebook: U26C U62C , self-cleavage read as 0.1

Notebook: G33C U87G , self-cleavage read as 0.22

Notebook: C17U A22U , self-cleavage read as 1.21

Notebook: C3A U52G , self-cleavage read as 1.31

Notebook: A57U A136G , self-cleavage read as 0.11

Notebook: U1C C113A , self-cleavage read as 0.62

Others:
Notebook: U20A A57G , self-cleavage read as 1

Notebook: U20C A43G , self-cleavage read as 1.35

Notebook: U12C A77G , self-cleavage read as 1.8

Notebook: G10C U96A , self-cleavage read as 0.22

Notebook: A24C A142C , self-cleavage read as 1.13

Notebook: C56U A129U , self-cleavage read as 0.23

Notebook: G25A A94G , self-cleavage read as 0.21

Notebook: A2G A124G , self-cleavage read as 0.74

Notebook: U96G C120U , self-cleavage read as 0.04

Notebook: C111U U134C , self-cleavage read as 2.26

Notebook: G36U U108C , self-cleavage read as 1.62

Notebook: U12G G139A , self-cleavage read as 0.95

Notebook: G48A U85A , self-cleavage read as 0.05

Notebook: U45C G122A , self-cleavage read as 0.81

Notebook: U87C U119C , self-cleavage read as 0.24

Notebook: U23C U104A , self-cleavage read as 1.14

Notebook: U73G C84U , self-cleavage read as 0.17

Notebook: U39C A69G , self-cleavage read as 0.39
